- measured.on: SHP2 (Homo sapiens (Human), UniProt Q06124)
- Sequence (Q06124 whole entry): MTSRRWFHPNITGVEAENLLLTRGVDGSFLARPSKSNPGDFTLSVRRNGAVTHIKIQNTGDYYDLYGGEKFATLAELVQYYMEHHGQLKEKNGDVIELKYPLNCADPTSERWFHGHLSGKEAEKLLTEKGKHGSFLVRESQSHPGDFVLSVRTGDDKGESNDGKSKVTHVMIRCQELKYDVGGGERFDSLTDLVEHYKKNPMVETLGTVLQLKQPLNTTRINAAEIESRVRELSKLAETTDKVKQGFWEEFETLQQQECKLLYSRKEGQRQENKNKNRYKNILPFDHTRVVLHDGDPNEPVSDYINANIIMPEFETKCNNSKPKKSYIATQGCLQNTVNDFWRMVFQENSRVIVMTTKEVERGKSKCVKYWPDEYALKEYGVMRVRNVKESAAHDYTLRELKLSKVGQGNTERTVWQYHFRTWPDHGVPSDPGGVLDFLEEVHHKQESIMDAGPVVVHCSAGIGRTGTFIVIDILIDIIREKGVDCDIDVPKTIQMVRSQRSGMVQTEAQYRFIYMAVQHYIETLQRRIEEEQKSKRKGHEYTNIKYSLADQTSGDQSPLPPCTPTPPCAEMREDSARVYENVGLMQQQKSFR
- test.method.notes: SHP2 allosteric inhibition assay (DiFMUP prompt fluorescence)
- Format: biochemical
- experimental.setup: 0.5 nM SHP2 activated with 0.5 μM peptide IRS1_pY1172(dPEG8)pY1222; substrate DiFMUP; 25° C.; read-out: IC50
recorded.metric: IC50 (nM)
Report the value in nM with no unit label.

Field IC50 (entry Nc1cccc(Sc2ncc(N3CCC(N)(CO)CC3)nc2N)c1Cl [Example 32] ) reads 195

Field IC50 (entry CC1(N)CCN(c2cnc(Sc3ccccc3Cl)c(N)n2)CC1 [Example 2] ) reads 70

Field IC50 (entry CC1(CN)CCN(c2cnc(Sc3cccc(N)c3Cl)c(N)n2)CC1 [Example 20] ) reads 22

Field IC50 (entry CC1(N)CCN(c2cnc(Sc3ccc(F)cc3Cl)c(N)n2)CC1 [Example 23] ) reads 51

Field IC50 (entry NCC1CCCN(c2cnc(Sc3cccnc3C(F)(F)F)c(N)n2)C1 (centres unmarked) [Example 46] ) reads 459

Proceed to the following item.
Field IC50 (entry CC1(CN)CCN(c2cnc(Sc3ccnc(Cl)c3Cl)c(N)n2)CC1 [Example 49] ) reads 100
